Target: HIV-1 Env of Q461.e2 (HIV-1)
Test: cell-based or functional assay
Please provide measured neutralization IC50 for the entries that follow.

GET /value?item= CAP256-VRC26.06 (antibody, V domains shown) VH: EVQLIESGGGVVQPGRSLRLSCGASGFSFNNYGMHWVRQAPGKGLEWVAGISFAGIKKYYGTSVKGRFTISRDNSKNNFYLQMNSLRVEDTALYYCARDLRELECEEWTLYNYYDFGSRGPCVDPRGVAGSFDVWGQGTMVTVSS VL: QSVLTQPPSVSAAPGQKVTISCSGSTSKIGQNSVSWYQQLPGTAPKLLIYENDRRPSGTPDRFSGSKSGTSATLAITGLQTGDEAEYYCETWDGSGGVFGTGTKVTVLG &field=neutralization IC50 returns > 50 µg/mL

Notebook: CAP256-VRC26.10 (antibody, V domains shown) VH: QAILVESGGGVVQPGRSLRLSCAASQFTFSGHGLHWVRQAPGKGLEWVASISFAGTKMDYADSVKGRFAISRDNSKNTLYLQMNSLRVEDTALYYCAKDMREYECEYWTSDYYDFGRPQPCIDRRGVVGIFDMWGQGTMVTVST VL: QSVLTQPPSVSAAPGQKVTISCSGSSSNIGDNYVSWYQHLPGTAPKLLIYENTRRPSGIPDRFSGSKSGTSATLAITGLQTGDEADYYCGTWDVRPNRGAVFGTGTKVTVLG , neutralization IC50 read as > 50 µg/mL

neutralization IC50 in this record for CAP256-VRC26.05 (antibody, V domains shown) VH: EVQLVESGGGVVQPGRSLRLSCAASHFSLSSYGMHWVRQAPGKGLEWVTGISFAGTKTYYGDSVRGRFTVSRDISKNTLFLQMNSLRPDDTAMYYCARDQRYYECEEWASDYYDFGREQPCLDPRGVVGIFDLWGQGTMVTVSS VL: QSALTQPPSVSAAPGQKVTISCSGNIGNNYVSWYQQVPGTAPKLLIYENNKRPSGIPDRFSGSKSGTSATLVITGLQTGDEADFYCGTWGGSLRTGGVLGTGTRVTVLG : > 50 µg/mL
